assay: protection from phage-mediated lysis, alamar blue read-out – E. coli UTI89, K1F phage, bacterial capsule biogenesis inhibitors (AID 488966); settings: 2 h; at 100 µM, stronger effect = higher value unless noted;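 note: capsule biogenesis inhibitors block K1F phage lysis so surviving cells raise fluorescence; higher fluorescence means more inhibition of phage lysis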
The campaign covered roughly 340,000 compounds. About 55 (0.02%) were called active. Not all results are given here. Entries with a potency or affinity are not part of this list.
recorded.endpoint: inhibition

Reference set (2 entries):
[
  {
    "compound.structure": "COc1ccc(-c2c(C)oc3c(CN4CCOCC4)c(O)ccc3c2=O)cc1",
    "inhibition": "0.06% (inactive)"
  },
  {
    "compound.structure": "Cc1ccc(S(=O)(=O)c2c(C)cc(C)nc2Oc2cccc(C)c2C)cc1",
    "inhibition": "1.5% (inactive)"
  }
]

Continue with the molecule presented below.
Prompt line: State the recorded inhibition for this entry: CCCn1nc(-c2nnc(-c3ccc(C)c(C)c3)o2)c2ccccc2c1=O
Response line: 0.05% (inactive)
